Biological target: Delta-type opioid receptor (Homo sapiens)
Sequence (P41143 whole entry): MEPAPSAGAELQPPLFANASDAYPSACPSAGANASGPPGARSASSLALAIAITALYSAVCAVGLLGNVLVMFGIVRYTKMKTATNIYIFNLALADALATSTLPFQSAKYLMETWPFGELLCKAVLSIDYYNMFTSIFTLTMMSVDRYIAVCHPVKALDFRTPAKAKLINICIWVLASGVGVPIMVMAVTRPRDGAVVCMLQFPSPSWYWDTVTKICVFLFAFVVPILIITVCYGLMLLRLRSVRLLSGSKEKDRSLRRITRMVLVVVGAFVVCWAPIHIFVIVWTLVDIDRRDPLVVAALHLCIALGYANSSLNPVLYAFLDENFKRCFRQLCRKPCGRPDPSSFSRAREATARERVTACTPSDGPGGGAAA
Assay: Displacement of [3H]DADLE from human recombinant delta opioid receptor expressed in CHO cells at 10 uM after 2 hrs by liquid scintillation counting
Format: cell-based
// Activity lookup, one value per entry
Numeric only. Scale: %

COC(=O)[C@@H]1C[C@H](OC(C)=O)C(=O)[C@H]2[C@@]1(C)CC[C@H]1C(=O)O[C@H](C(=O)c3cc4ccccc4o3)C[C@]21C :: 91
COC(=O)[C@@H]1C[C@H](OC(C)=O)C(=O)[C@H]2[C@@]1(C)CC[C@H]1C(=O)O[C@H](C(=O)c3cccs3)C[C@]21C :: 99

Attention now turns to another entry.
The compound COC(=O)[C@@H]1C[C@H](OC(C)=O)C(=O)[C@H]2[C@@]1(C)CC[C@H]1C(=O)O[C@H](/C=C\c3ccoc3)C[C@]21C showed Activity equal to 94

This collection of values is drawn from ChEMBL document CHEMBL2021813.
